# MEASUREMENT NOTES: inhibition of 3D7 malaria parasite growth – strain 3D7 (AID 2306);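 further: 0% = DMSO wells and 100% = chloroquine plus artemisinin control wells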
# CONDITION: P. falciparum 3D7 erythrocytic growth, LDH absorbance, 72 h; at 2 µM; hits give high values
PROPERTY: growth inhibition (%)
Give your result in % as a bare value.

Briefly, growth inhibition measured for CN(C)c1cccc2c(S(=O)(=O)Nc3cccc(CCN4CCC(N5CCCCC5)CC4)c3)cccc12 : 98

Briefly, growth inhibition measured for CN(C(=O)C1(c2ccc(Cl)cc2)CC1)C1CCN(CCCCCNC(=O)/C=C/c2ccc(Cl)c(Cl)c2)CC1 : 88

Briefly, growth inhibition measured for CN(C)CCN(C)Cc1cccc(-c2ccc3c(Nc4cc(O)c(Cl)cc4F)ccnc3c2)c1 : 101

Briefly, growth inhibition measured for COCCNCc1ncsc1-c1ccc2c(Nc3cc(O)ccc3C)ccnc2c1 : 101

Briefly, growth inhibition measured for COc1ccc(-c2cnc(N)c(-c3ccc(C(N)=O)cc3)c2)cc1OC : 96

Briefly, growth inhibition measured for COc1ccccc1N1CCN(CCCCNC(=O)c2ccc(NC(=O)c3cc(Cl)cc(Cl)c3)cc2)CC1 : 101

Briefly, growth inhibition measured for O=c1cc(NCCCNC2CCOc3c(I)cc(Cl)cc32)[nH]c2ccccc12 (centres undefined) : 96

Briefly, growth inhibition measured for Cc1cc(CNCC(CCNc2cc(=O)c3ccccc3[nH]2)NCc2cc(Br)cc(Br)c2)oc1C (centres undefined) : 98

Briefly, growth inhibition measured for Fc1ccc(Nc2ccnc3cc(I)ccc23)c(Cl)c1 : 95
